System: Spodoptera litura
Experiment: Antifeedant activity against Spodoptera litura third-instar larvae fed on compound treated fresh sweet potato leaves by dual choice leaf disk assay
Format: functional
measurementLabel: pED50
Provide a numeric answer; units are not to be included.

Please review the entries below; each comes with its answer.
>>> observedmeasurement("C=C(C)c1cc2cc(C(C)=O)c(OC)cc2o1")
7.21
>>> observedmeasurement("C=C(C)C1Cc2cc(C(C)=O)ccc2O1 (racemic)")
7.13

Inquiry: What pED50 value was documented for this molecule, C=C(C)C1Cc2c(cc(OC)c(C(C)O)c2OC)O1 (configuration not stated) ?
Reply text: 6.96

Inquiry: What pED50 value was documented for this molecule, C=C(C)C1Cc2ccccc2O1 (configuration not stated) ?
Reply text: 5.96

Inquiry: What pED50 value was documented for this molecule, C=C(C)[C@@H]1Cc2c(cc(OC)c(C(C)=O)c2O)O1 ?
Reply text: 6.89

Inquiry: What pED50 value was documented for this molecule, C=C(C)C1Cc2c(cc(OC)c(OC)c2OC)O1 (configuration not stated) ?
Reply text: 7.25

Inquiry: What pED50 value was documented for this molecule, C=C(C)C1Cc2c(cc(OC)c(C(C)=O)c2O)O1 (racemic) ?
Reply text: 7.15

Inquiry: What pED50 value was documented for this molecule, C=C(C)C1Cc2c(OC)cc(OC)c(C(C)=O)c2O1 (configuration not stated) ?
Reply text: 8.27

Inquiry: What pED50 value was documented for this molecule, C=C(C)c1cc2cc(C(C)=O)c(O)cc2o1 ?
Reply text: 5.92

Inquiry: What pED50 value was documented for this molecule, COc1cc2c(c(OC)c1C(C)=O)CC(C(C)C)O2 (configuration not stated) ?
Reply text: 7.12

Inquiry: What pED50 value was documented for this molecule, C=C(C)C1Cc2c(OC)c(OC)c(OC)c(C(C)=O)c2O1 (configuration not stated) ?
Reply text: 7.8

Inquiry: What pED50 value was documented for this molecule, C=C(C)C1Cc2c(OC)cc(OC)cc2O1 (configuration not stated) ?
Reply text: 7.28
